B1: TSN (parent)
chain: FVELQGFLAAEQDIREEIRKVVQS

variants of: B1; assay: protein stability index of a GFP-peptide fusion (GPS, HEK-293T) (PSI 1-6); higher = more stable; conditions: c terminus: a fixed tail appended;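 note: lentivirally expressed fusions sorted by FACS into six bins by GFP to DsRed ratio, PSI derived from sequencing read proportions per bin multiplied by bin number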
quantityName: protein stability index
Answer with the value's number alone.

Recorded results for 10 variants are shown here.
{"polymerSequence": "FVELQGFLAAEQDIREEIRKKVQS", "quantityName": "protein stability index", "dataValue": 1.79}
{"polymerSequence": "FVELQGFQAAEQDIREEIRKVVQS", "quantityName": "protein stability index", "dataValue": 1.37}
{"polymerSequence": "FVELQGFLAAEQDIRHEIRKVVQS", "quantityName": "protein stability index", "dataValue": 1.34}
{"polymerSequence": "FVELQGFLAAEMDIREEIRKVVQS", "quantityName": "protein stability index", "dataValue": 2.17}
{"polymerSequence": "FVELQGFLAAEQDIREEIRRVVQS", "quantityName": "protein stability index", "dataValue": 1.99}
{"polymerSequence": "FVELQGFLAAEQDIEEEIRKVVQS", "quantityName": "protein stability index", "dataValue": 2.06}
{"polymerSequence": "FVELQGFLAAEQDWREEIRKVVQS", "quantityName": "protein stability index", "dataValue": 2.36}
{"polymerSequence": "FVELQGFLAAEQDIREEFRKVVQS", "quantityName": "protein stability index", "dataValue": 2.06}
{"polymerSequence": "FVELQGFLAAEQDIREEIRKVVQE", "quantityName": "protein stability index", "dataValue": 1.72}
{"polymerSequence": "FVELQGFLAAEQDIREESRKVVQS", "quantityName": "protein stability index", "dataValue": 1.75}

Data point: "FIELQGFLAAEQDIREEIRKVVQS" ; protein stability index = 1.51

Data point: "FVELQGFLACEQDIREEIRKVVQS" ; protein stability index = 1.04
